# procedure.text: Particle size distribution of ORZY-05 by Malvern Mastersizer 3000
# Assay type: physicochemical
# experimental.setup: ORZY-05 particles, Malvern Mastersizer 3000, volume distribution
experimental.readout: D10 (μm)
Answers are plain numbers, in μm.

Would you please look over these solved cases?
molecule	output.unit	D10
O=C(O)CC(O)(CC(=O)O)C(=O)O.[O-][n+]1cccc(/C(Cl)=N/OC[C@H](O)CN2CCCCC2)c1 [compound 1001, arimoclomol citrate]	μm	7.00
O=C(O)CC(O)(CC(=O)O)C(=O)O.[O-][n+]1cccc(/C(Cl)=N/OC[C@H](O)CN2CCCCC2)c1 [compound 1002, arimoclomol citrate]	μm	14.00
O=C(O)CC(O)(CC(=O)O)C(=O)O.[O-][n+]1cccc(/C(Cl)=N/OC[C@H](O)CN2CCCCC2)c1 [compound 2004, arimoclomol citrate]	μm	10.2
O=C(O)CC(O)(CC(=O)O)C(=O)O.[O-][n+]1cccc(/C(Cl)=N/OC[C@H](O)CN2CCCCC2)c1 [compound 2006, arimoclomol citrate]	μm	11.6
O=C(O)CC(O)(CC(=O)O)C(=O)O.[O-][n+]1cccc(/C(Cl)=N/OC[C@H](O)CN2CCCCC2)c1 [compound 2001, arimoclomol citrate]	μm	17.2

Consider the record given below.
# query: D10 of entry O=C(O)CC(O)(CC(=O)O)C(=O)O.[O-][n+]1cccc(/C(Cl)=N/OC[C@H](O)CN2CCCCC2)c1 [compound 1004, arimoclomol citrate]
8.00

###

# procedure.text: Particle size distribution of ORZY-05 by static automated imaging (Morphologi 4)
# Assay type: physicochemical
# experimental.setup: ORZY-05 particles
experimental.readout: Volume CE Diameter D90
Give the value; after it, write the unit.

These solved cases illustrate the format of a correct answer.
compound	experimental.readout	value.observed
O=C(O)CC(O)(CC(=O)O)C(=O)O.[O-][n+]1cccc(/C(Cl)=N/OC[C@H](O)CN2CCCCC2)c1 [17-004, arimoclomol citrate]	Volume CE Diameter D90	52.20 μm
O=C(O)CC(O)(CC(=O)O)C(=O)O.[O-][n+]1cccc(/C(Cl)=N/OC[C@H](O)CN2CCCCC2)c1 [18-004, arimoclomol citrate]	Volume CE Diameter D90	81.20 μm
O=C(O)CC(O)(CC(=O)O)C(=O)O.[O-][n+]1cccc(/C(Cl)=N/OC[C@H](O)CN2CCCCC2)c1 [17-003, arimoclomol citrate]	Volume CE Diameter D90	26.70 μm
O=C(O)CC(O)(CC(=O)O)C(=O)O.[O-][n+]1cccc(/C(Cl)=N/OC[C@H](O)CN2CCCCC2)c1 [compound 1001, arimoclomol citrate]	Volume CE Diameter D90	47.14 μm
O=C(O)CC(O)(CC(=O)O)C(=O)O.[O-][n+]1cccc(/C(Cl)=N/OC[C@H](O)CN2CCCCC2)c1 [18-002, arimoclomol citrate]	Volume CE Diameter D90	36.00 μm

Record request: Volume CE Diameter D90 value, item O=C(O)CC(O)(CC(=O)O)C(=O)O.[O-][n+]1cccc(/C(Cl)=N/OC[C@H](O)CN2CCCCC2)c1 [compound 1004, arimoclomol citrate]
43.46 μm

###

# procedure.text: Particle size distribution of ORZY-05 by Malvern Mastersizer 3000
# Type: physicochemical
# experimental.setup: ORZY-05 particles, Malvern Mastersizer 3000, volume distribution
experimental.readout: D90
Could you kindly put the unit after your number?

Take a look at these entries with their results.
compound	D90
O=C(O)CC(O)(CC(=O)O)C(=O)O.[O-][n+]1cccc(/C(Cl)=N/OC[C@H](O)CN2CCCCC2)c1 [compound 1002, arimoclomol citrate]	118.00 μm
O=C(O)CC(O)(CC(=O)O)C(=O)O.[O-][n+]1cccc(/C(Cl)=N/OC[C@H](O)CN2CCCCC2)c1 [compound 2005, arimoclomol citrate]	82.6 μm
O=C(O)CC(O)(CC(=O)O)C(=O)O.[O-][n+]1cccc(/C(Cl)=N/OC[C@H](O)CN2CCCCC2)c1 [compound 2003, arimoclomol citrate]	40.7 μm
O=C(O)CC(O)(CC(=O)O)C(=O)O.[O-][n+]1cccc(/C(Cl)=N/OC[C@H](O)CN2CCCCC2)c1 [compound 2004, arimoclomol citrate]	87 μm
O=C(O)CC(O)(CC(=O)O)C(=O)O.[O-][n+]1cccc(/C(Cl)=N/OC[C@H](O)CN2CCCCC2)c1 [compound 1001, arimoclomol citrate]	63.00 μm

Could you now look at the following compound, please?
Bench note: what D90 did O=C(O)CC(O)(CC(=O)O)C(=O)O.[O-][n+]1cccc(/C(Cl)=N/OC[C@H](O)CN2CCCCC2)c1 [compound 2002, arimoclomol citrate] show?
37.9 μm

###

# procedure.text: Particle size distribution of ORZY-05 by static automated imaging (Morphologi 4)
# Type: physicochemical
# experimental.setup: ORZY-05 particles
experimental.readout: Volume CE Diameter D10 (μm)
Answers are plain numbers, in μm.

Take a look at these entries with their results.
molecule	experimental.readout	output.unit	value.observed
O=C(O)CC(O)(CC(=O)O)C(=O)O.[O-][n+]1cccc(/C(Cl)=N/OC[C@H](O)CN2CCCCC2)c1 [18-003, arimoclomol citrate]	Volume CE Diameter D10	μm	24.00
O=C(O)CC(O)(CC(=O)O)C(=O)O.[O-][n+]1cccc(/C(Cl)=N/OC[C@H](O)CN2CCCCC2)c1 [18-001, arimoclomol citrate]	Volume CE Diameter D10	μm	11.20
O=C(O)CC(O)(CC(=O)O)C(=O)O.[O-][n+]1cccc(/C(Cl)=N/OC[C@H](O)CN2CCCCC2)c1 [compound 1003, arimoclomol citrate]	Volume CE Diameter D10	μm	10.66

Give one value of Volume CE Diameter D10 per listed molecule.
1. O=C(O)CC(O)(CC(=O)O)C(=O)O.[O-][n+]1cccc(/C(Cl)=N/OC[C@H](O)CN2CCCCC2)c1 [17-002, arimoclomol citrate]
2. O=C(O)CC(O)(CC(=O)O)C(=O)O.[O-][n+]1cccc(/C(Cl)=N/OC[C@H](O)CN2CCCCC2)c1 [18-002, arimoclomol citrate]
3. O=C(O)CC(O)(CC(=O)O)C(=O)O.[O-][n+]1cccc(/C(Cl)=N/OC[C@H](O)CN2CCCCC2)c1 [compound 1001, arimoclomol citrate]

1. 6.20
2. 10.90
3. 13.10

###

# procedure.text: Particle size distribution of ORZY-05 by static automated imaging (Morphologi 4)
# Type: physicochemical
# experimental.setup: ORZY-05 particles
experimental.readout: Number CE Diameter D50 (μm)
Give bare numbers, in μm.

// known answers, use as guide
compound	Number CE Diameter D50 / μm
O=C(O)CC(O)(CC(=O)O)C(=O)O.[O-][n+]1cccc(/C(Cl)=N/OC[C@H](O)CN2CCCCC2)c1 [compound 1004, arimoclomol citrate]	2.86
O=C(O)CC(O)(CC(=O)O)C(=O)O.[O-][n+]1cccc(/C(Cl)=N/OC[C@H](O)CN2CCCCC2)c1 [compound 1002, arimoclomol citrate]	5.61

We now examine a further compound.
Query: Number CE Diameter D50; subject: O=C(O)CC(O)(CC(=O)O)C(=O)O.[O-][n+]1cccc(/C(Cl)=N/OC[C@H](O)CN2CCCCC2)c1 [compound 1003, arimoclomol citrate]
3.34

###

# procedure.text: Particle size distribution of ORZY-05 by static automated imaging (Morphologi 4)
# Type: physicochemical
# experimental.setup: ORZY-05 particles
Classify: Yes when Number Length D10 is strictly less than 3 μm; No when Number Length D10 is not.

compound	assigned.class
O=C(O)CC(O)(CC(=O)O)C(=O)O.[O-][n+]1cccc(/C(Cl)=N/OC[C@H](O)CN2CCCCC2)c1 [17-001, arimoclomol citrate]	Yes
O=C(O)CC(O)(CC(=O)O)C(=O)O.[O-][n+]1cccc(/C(Cl)=N/OC[C@H](O)CN2CCCCC2)c1 [compound 1001, arimoclomol citrate]	Yes
O=C(O)CC(O)(CC(=O)O)C(=O)O.[O-][n+]1cccc(/C(Cl)=N/OC[C@H](O)CN2CCCCC2)c1 [18-004, arimoclomol citrate]	No
O=C(O)CC(O)(CC(=O)O)C(=O)O.[O-][n+]1cccc(/C(Cl)=N/OC[C@H](O)CN2CCCCC2)c1 [18-003, arimoclomol citrate]	No
O=C(O)CC(O)(CC(=O)O)C(=O)O.[O-][n+]1cccc(/C(Cl)=N/OC[C@H](O)CN2CCCCC2)c1 [17-004, arimoclomol citrate]	Yes

Here is another compound to look at.
Is the reported Number Length D10 for O=C(O)CC(O)(CC(=O)O)C(=O)O.[O-][n+]1cccc(/C(Cl)=N/OC[C@H](O)CN2CCCCC2)c1 [compound 1002, arimoclomol citrate] strictly below 3 μm?
No

###

# procedure.text: Particle size distribution of ORZY-05 by static automated imaging (Morphologi 4)
# Format: physicochemical
# experimental.setup: ORZY-05 particles
# Procedure: The materials and methods were essentially as in Example 7. In the present example, the cooling time of the cooling step of from 30° C. to 0° C. subsequent to addition of acetone was varied and its influence on the particle size of ORZY-05 was determined. The cooling time is a measure of how long it takes to reach 0° C. from 30° C. […] Morphologi 4: The Particle size distribution of Arimoclomol citrate (ORZY-05) was also measured using a Malvern Morphologi 4 equipment. […]
# if value of Number CE Diameter Mean reaches 8 μm, tag label 1; if it stays below, tag label 0

As a guide, the following entries are already answered.
compound	assigned.class
O=C(O)CC(O)(CC(=O)O)C(=O)O.[O-][n+]1cccc(/C(Cl)=N/OC[C@H](O)CN2CCCCC2)c1 [17-003, arimoclomol citrate]	label 0
O=C(O)CC(O)(CC(=O)O)C(=O)O.[O-][n+]1cccc(/C(Cl)=N/OC[C@H](O)CN2CCCCC2)c1 [compound 1002, arimoclomol citrate]	label 0
O=C(O)CC(O)(CC(=O)O)C(=O)O.[O-][n+]1cccc(/C(Cl)=N/OC[C@H](O)CN2CCCCC2)c1 [compound 1004, arimoclomol citrate]	label 0
O=C(O)CC(O)(CC(=O)O)C(=O)O.[O-][n+]1cccc(/C(Cl)=N/OC[C@H](O)CN2CCCCC2)c1 [17-004, arimoclomol citrate]	label 0
O=C(O)CC(O)(CC(=O)O)C(=O)O.[O-][n+]1cccc(/C(Cl)=N/OC[C@H](O)CN2CCCCC2)c1 [17-001, arimoclomol citrate]	label 0

Note: attention shifts to another entry.
Does O=C(O)CC(O)(CC(=O)O)C(=O)O.[O-][n+]1cccc(/C(Cl)=N/OC[C@H](O)CN2CCCCC2)c1 [18-003, arimoclomol citrate] have a reported Number CE Diameter Mean of at least 8 μm?
label 1
